Source listed as ChEMBL document CHEMBL4673391.

// reported EC50 for each item listed
tgt: Melanocortin receptor 3 (Mus musculus, UniProt P33033)
Sequence (P33033 whole entry): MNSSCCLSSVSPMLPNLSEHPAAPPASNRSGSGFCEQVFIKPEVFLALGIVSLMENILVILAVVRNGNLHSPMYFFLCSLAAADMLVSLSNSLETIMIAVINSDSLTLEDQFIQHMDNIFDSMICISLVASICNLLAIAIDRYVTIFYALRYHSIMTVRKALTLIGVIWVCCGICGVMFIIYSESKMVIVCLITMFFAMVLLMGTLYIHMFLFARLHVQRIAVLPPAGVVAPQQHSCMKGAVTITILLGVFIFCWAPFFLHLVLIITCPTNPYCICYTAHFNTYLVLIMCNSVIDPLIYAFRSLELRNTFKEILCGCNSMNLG
protocol.notes: Agonist activity at mouse melanocortin receptor 3 expressed in HEK293 cells assessed as stimulation of cAMP accumulation incubated for 2 hrs by cAMP Alpha-screen assay
Lab book: enter the figure in nM, no units written.

CC(=O)N[C@@H](Cc1c[nH]cn1)C(=O)N[C@@H](CCC(N)=O)C(=O)N[C@H](Cc1ccc(-c2ccccc2)cc1)C(=O)N1Cc2ccccc2C[C@H]1C(N)=O | 150
CC(=O)N[C@@H](CCCNC(=N)N)C(=O)N[C@@H](CCC(N)=O)C(=O)N[C@H](Cc1ccc(-c2ccccc2)cc1)C(=O)N1Cc2ccccc2C[C@@H]1C(N)=O | 14
CC(=O)N[C@H](C(=O)N[C@@H](CCC(N)=O)C(=O)N[C@H](Cc1ccc(-c2ccccc2)cc1)C(=O)N1Cc2ccccc2C[C@@H]1C(N)=O)C(C)C | 70
CC(=O)N[C@H](C(=O)N[C@@H](CCCNC(=N)N)C(=O)N[C@H](Cc1ccc(-c2ccccc2)cc1)C(=O)N1Cc2ccccc2C[C@H]1C(N)=O)C(C)C | 40

Any idea what EC50 was measured for `CC(=O)N[C@@H](Cc1c[nH]cn1)C(=O)N[C@@H](CCCNC(=N)N)C(=O)N[C@H](Cc1ccc(-c2ccccc2)cc1)C(=O)N1Cc2ccccc2C[C@H]1C(N)=O` ? 22

Now consider `CC(=O)N[C@@H](CCCNC(=N)N)C(=O)N[C@@H](CCCNC(=N)N)C(=O)N[C@H](Cc1ccc(-c2ccccc2)cc1)C(=O)N1Cc2ccccc2C[C@H]1C(N)=O` and answer again. 11

====

tgt: Melanocortin receptor 4 (Mus musculus) (UniProt P56450)
Sequence (P56450 whole entry): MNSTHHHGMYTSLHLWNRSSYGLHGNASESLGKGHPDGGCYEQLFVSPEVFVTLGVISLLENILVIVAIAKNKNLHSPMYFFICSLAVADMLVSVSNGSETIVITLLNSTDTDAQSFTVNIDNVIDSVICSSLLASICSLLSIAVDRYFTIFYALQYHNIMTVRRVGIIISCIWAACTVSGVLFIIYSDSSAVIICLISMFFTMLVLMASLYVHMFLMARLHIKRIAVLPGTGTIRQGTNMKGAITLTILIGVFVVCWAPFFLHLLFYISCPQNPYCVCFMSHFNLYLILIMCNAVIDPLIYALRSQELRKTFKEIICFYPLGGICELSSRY
protocol.notes: Agonist activity at mouse melanocortin receptor 4 expressed in HEK293 cells assessed as stimulation of cAMP accumulation at 100 uM incubated for 2 hrs by cAMP Alpha-screen assay relative to control
Format: functional, cell-based
condition.context: filed as agonist
// reported Activity for each item listed
Please give the number followed by its unit.

Field: Activity (Melanocortin receptor 4 (Mus musculus) (UniProt P56450)). Entry: `CC(=O)N[C@H](C(=O)N[C@@H](CCC(N)=O)C(=O)N[C@H](Cc1ccc(-c2ccccc2)cc1)C(=O)N1Cc2ccccc2C[C@@H]1C(N)=O)C(C)C` 40%

====

tgt: Melanocortin receptor 5 (Mus musculus, UniProt P41149)
Sequence (P41149 whole entry): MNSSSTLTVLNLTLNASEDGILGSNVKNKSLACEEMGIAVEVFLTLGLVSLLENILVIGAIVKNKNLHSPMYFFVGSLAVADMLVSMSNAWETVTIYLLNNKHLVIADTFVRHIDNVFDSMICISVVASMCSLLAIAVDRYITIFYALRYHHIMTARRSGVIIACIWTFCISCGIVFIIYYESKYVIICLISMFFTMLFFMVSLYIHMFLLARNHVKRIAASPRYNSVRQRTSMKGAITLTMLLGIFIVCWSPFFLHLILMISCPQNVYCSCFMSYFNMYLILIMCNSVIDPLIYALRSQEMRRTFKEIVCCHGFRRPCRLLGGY
protocol.notes: Agonist activity at mouse melanocortin receptor 5 expressed in HEK293 cells assessed as stimulation of cAMP accumulation incubated for 2 hrs by cAMP Alpha-screen assay
// reported EC50 for each item listed
Lab book: enter the figure in nM, no units written.

CC(=O)N[C@@H](Cc1c[nH]cn1)C(=O)N[C@@H](CCCNC(=N)N)C(=O)N[C@H](Cc1ccc(-c2ccccc2)cc1)C(=O)N1Cc2ccccc2C[C@@H]1C(N)=O | 26
CC(=O)N[C@H](C(=O)N[C@@H](CCCNC(=N)N)C(=O)N[C@H](Cc1ccc(-c2ccccc2)cc1)C(=O)N1Cc2ccccc2C[C@@H]1C(N)=O)C(C)C | 25
CC(=O)N[C@@H](Cc1c[nH]cn1)C(=O)N[C@@H](CCC(N)=O)C(=O)N[C@H](Cc1ccc(-c2ccccc2)cc1)C(=O)N1Cc2ccccc2C[C@H]1C(N)=O | 31
CC(=O)N[C@@H](CCCNC(=N)N)C(=O)N[C@@H](CCC(N)=O)C(=O)N[C@H](Cc1ccc(-c2ccccc2)cc1)C(=O)N1Cc2ccccc2C[C@H]1C(N)=O | 16.4
CC(=O)N[C@@H](CCCNC(=N)N)C(=O)N[C@@H](CCCNC(=N)N)C(=O)N[C@H](Cc1ccc(-c2ccccc2)cc1)C(=O)N1Cc2ccccc2C[C@@H]1C(N)=O | 5.7

Attention now turns to another entry.
Any idea what EC50 was measured for `CC(=O)N[C@@H](CCCNC(=N)N)C(=O)N[C@@H](CCCNC(=N)N)C(=O)N[C@H](Cc1ccc(-c2ccccc2)cc1)C(=O)N1Cc2ccccc2C[C@H]1C(N)=O` ? 3.5

====

tgt: UniProt:Q01727
Sequence (Q01727 whole entry): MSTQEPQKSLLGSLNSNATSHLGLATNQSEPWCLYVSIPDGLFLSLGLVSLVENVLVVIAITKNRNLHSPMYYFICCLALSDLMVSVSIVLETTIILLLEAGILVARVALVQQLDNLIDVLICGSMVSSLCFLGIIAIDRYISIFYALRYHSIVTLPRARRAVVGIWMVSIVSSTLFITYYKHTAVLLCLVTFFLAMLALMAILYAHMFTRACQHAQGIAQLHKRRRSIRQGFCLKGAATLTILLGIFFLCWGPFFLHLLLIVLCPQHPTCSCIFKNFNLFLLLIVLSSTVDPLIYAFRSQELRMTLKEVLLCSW
protocol.notes: Agonist activity at mouse melanocortin receptor 1 expressed in HEK293 cells assessed as stimulation of cAMP accumulation incubated for 2 hrs by cAMP Alpha-screen assay
// reported pEC50 for each item listed
FYI, pEC50 means -log10 of a concentration in mol per litre.

See these solved cases before continuing.
CC(=O)N[C@H](C(=O)N[C@@H](CCCNC(=N)N)C(=O)N[C@H](Cc1ccc(-c2ccccc2)cc1)C(=O)N1Cc2ccccc2C[C@H]1C(N)=O)C(C)C | 8.96
CC(=O)N[C@H](C(=O)N[C@@H](CCC(N)=O)C(=O)N[C@H](Cc1ccc(-c2ccccc2)cc1)C(=O)N1Cc2ccccc2C[C@@H]1C(N)=O)C(C)C | 6.82
CC(=O)N[C@H](C(=O)N[C@@H](CCCNC(=N)N)C(=O)N[C@H](Cc1ccc(-c2ccccc2)cc1)C(=O)N1Cc2ccccc2C[C@@H]1C(N)=O)C(C)C | 8.77
CC(=O)N[C@@H](Cc1c[nH]cn1)C(=O)N[C@@H](CCCNC(=N)N)C(=O)N[C@H](Cc1ccc(-c2ccccc2)cc1)C(=O)N1Cc2ccccc2C[C@H]1C(N)=O | 9.30
CC(=O)N[C@@H](CCCNC(=N)N)C(=O)N[C@@H](CCC(N)=O)C(=O)N[C@H](Cc1ccc(-c2ccccc2)cc1)C(=O)N1Cc2ccccc2C[C@@H]1C(N)=O | 7.96

Attention now turns to another entry.
Any idea what pEC50 was measured for `CC(=O)N[C@@H](Cc1c[nH]cn1)C(=O)N[C@@H](CCC(N)=O)C(=O)N[C@H](Cc1ccc(-c2ccccc2)cc1)C(=O)N1Cc2ccccc2C[C@H]1C(N)=O` ? 6.80

====

tgt: Melanocortin receptor 4 (Mus musculus)
protocol.notes: Agonist activity at mouse melanocortin receptor 4 expressed in HEK293 cells assessed as stimulation of cAMP accumulation at 100 uM incubated for 2 hrs by cAMP Alpha-screen assay relative to control
Assay type: functional, cell-based
measured.property: Activity
Please give the number followed by its unit.

See these solved cases before continuing.
CC(=O)N[C@@H](Cc1c[nH]cn1)C(=O)N[C@@H](CCC(N)=O)C(=O)N[C@H](Cc1ccc(-c2ccccc2)cc1)C(=O)N1Cc2ccccc2C[C@H]1C(N)=O | 20%
CC(=O)N[C@@H](Cc1c[nH]cn1)C(=O)N[C@@H](CCCNC(=N)N)C(=O)N[C@H](Cc1ccc(-c2ccccc2)cc1)C(=O)N1Cc2ccccc2C[C@@H]1C(N)=O | 35%
CC(=O)N[C@H](C(=O)N[C@@H](CCC(N)=O)C(=O)N[C@H](Cc1ccc(-c2ccccc2)cc1)C(=O)N1Cc2ccccc2C[C@H]1C(N)=O)C(C)C | 20%
CC(=O)N[C@@H](CCCNC(=N)N)C(=O)N[C@@H](CCCNC(=N)N)C(=O)N[C@H](Cc1ccc(-c2ccccc2)cc1)C(=O)N1Cc2ccccc2C[C@H]1C(N)=O | 35%
CC(=O)N[C@H](C(=O)N[C@@H](CCCNC(=N)N)C(=O)N[C@H](Cc1ccc(-c2ccccc2)cc1)C(=O)N1Cc2ccccc2C[C@@H]1C(N)=O)C(C)C | 35%
CC(=O)N[C@@H](Cc1c[nH]cn1)C(=O)N[C@@H](CCCNC(=N)N)C(=O)N[C@H](Cc1ccc(-c2ccccc2)cc1)C(=O)N1Cc2ccccc2C[C@H]1C(N)=O | 35%

Attention now turns to another entry.
Any idea what Activity was measured for `CC(=O)N[C@H](C(=O)N[C@@H](CCCNC(=N)N)C(=O)N[C@H](Cc1ccc(-c2ccccc2)cc1)C(=O)N1Cc2ccccc2C[C@H]1C(N)=O)C(C)C` ? 10%

====

tgt: Melanocortin receptor 4 (Mus musculus, UniProt P56450)
Sequence (P56450 whole entry): as the sequence (P56450 whole entry) above
protocol.notes: Antagonist activity at mouse melanocortin receptor 4 expressed in HEK293 cells assessed as inhibition of NDP-MSH-induced cAMP accumulation incubated for 2 hrs by cAMP Alpha-screen assay based Schild analysis
measured.property: pKi
FYI, pKi means -log10 of a concentration in mol per litre.

CC(=O)N[C@@H](CCCNC(=N)N)C(=O)N[C@@H](CCC(N)=O)C(=O)N[C@H](Cc1ccc(-c2ccccc2)cc1)C(=O)N1Cc2ccccc2C[C@H]1C(N)=O | 5.70
CC(=O)N[C@@H](Cc1c[nH]cn1)C(=O)N[C@@H](CCCNC(=N)N)C(=O)N[C@H](Cc1ccc(-c2ccccc2)cc1)C(=O)N1Cc2ccccc2C[C@@H]1C(N)=O | 6.49

Any idea what pKi was measured for `CC(=O)N[C@@H](CCCNC(=N)N)C(=O)N[C@@H](CCCNC(=N)N)C(=O)N[C@H](Cc1ccc(-c2ccccc2)cc1)C(=O)N1Cc2ccccc2C[C@@H]1C(N)=O` ? 6.80

Now consider `CC(=O)N[C@@H](Cc1c[nH]cn1)C(=O)N[C@@H](CCC(N)=O)C(=O)N[C@H](Cc1ccc(-c2ccccc2)cc1)C(=O)N1Cc2ccccc2C[C@@H]1C(N)=O` and answer again. 5.40
